# System: Spodoptera littoralis (Egyptian Cotton Leaf Worm)
# RUN DESCRIPTION: Example B2: Spodoptera littoralis, systemic test via lettuce roots in agar
# Format: in vivo
# RECORDED CONDITIONS: 144 h, test rate of 12.5 ppm, uptake via lettuce roots, 6 days after infestation, read-out: effect in at least one of the three categories (mortality, anti-feedancy, or growth inhibition)
Please provide measured percent control (mortality, anti-feedancy or growth inhibition) at 12.5 ppm for the entries that follow.

Q: Report percent control (mortality, anti-feedancy or growth inhibition) at 12.5 ppm for CCS(=O)(=O)c1cc(C#Cc2ccc(Cl)cc2)ccc1-c1nc2cc(C(F)(F)F)ncc2n1C [P8] please.
A: ≥ 80%

Q: Repeat with CCS(=O)(=O)c1cc(C2CC2)cnc1-c1nc2cc(C(F)(F)F)ncc2n1C [P7]
A: ≥ 80%

Q: Now consider CCS(=O)(=O)c1cc(C2(C#N)CC2)cnc1-c1nc2cc(C(F)(F)F)ncc2n1C [P16] and answer again.
A: ≥ 80%

Q: Please do the same for CCS(=O)(=O)c1cc(C2(C#N)CC2)ccc1-c1nc2cc(C(F)(F)F)ncc2n1C [P15] as well.
A: ≥ 80%

Q: And for C=Cc1ccc(-c2nc3cc(C(F)(F)F)ncc3n2C)c(S(=O)(=O)CC)c1 [P13] ?
A: ≥ 80%

Q: Next record, please: C/C=C/c1cnc(-c2nc3cc(C(F)(F)F)ncc3n2C)c(S(=O)(=O)CC)c1 [P6]
A: ≥ 80%
